Where these numbers come from: PubChem BioAssay (Tox21)

Biological target: Nuclear receptor subfamily 1 group I member 3 (Homo sapiens) (UniProt Q14994)
Sequence (Q14994 whole entry, looked up): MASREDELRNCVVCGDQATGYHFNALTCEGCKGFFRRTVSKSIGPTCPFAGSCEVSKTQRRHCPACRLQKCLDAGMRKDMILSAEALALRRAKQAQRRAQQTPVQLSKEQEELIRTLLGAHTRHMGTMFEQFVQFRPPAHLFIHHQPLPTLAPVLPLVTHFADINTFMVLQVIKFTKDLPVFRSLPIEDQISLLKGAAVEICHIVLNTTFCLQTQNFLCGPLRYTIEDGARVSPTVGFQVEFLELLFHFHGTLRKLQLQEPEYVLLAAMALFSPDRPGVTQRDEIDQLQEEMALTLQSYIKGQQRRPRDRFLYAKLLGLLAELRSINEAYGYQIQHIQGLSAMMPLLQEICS
Experiment: qHTS assay to identify small molecule agonists of the constitutive androstane receptor (CAR) signaling pathway (AID 1224839); further: nearly all actives have a fitted effect of over 15% in size;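 on activation: HepG2 cells stably carrying human CAR and a CYP2B6 luciferase reporter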
Conditions: HepG2 hCAR CYP2B6-luciferase, agonist mode, 24 h; series mostly up to 92.4 µM
Records with an inconclusive call do not appear. Activity calls are given as the source filed them. The call rests on the fitted dose curve; in most records, active means well fitted activation curve with a large enough effect in the repeat runs; inconclusive means weak or mixed curves; inactive means no such curve, though single readings can be large or run the other way.
Output constraint: value belongs to active, inactive

Please review the entries below; each comes with its answer.
COMPOUND: ClC(Cl)Br
STUDY_SYSTEM: Nuclear receptor subfamily 1 group I member 3 (Homo sapiens) (UniProt Q14994)
ASSIGNED_CATEGORY: inactive
--
COMPOUND: O=C(O)c1ccc2[nH]cc(CCCCN3CC=C(c4ccccc4)CC3)c2c1
STUDY_SYSTEM: Nuclear receptor subfamily 1 group I member 3 (Homo sapiens) (UniProt Q14994)
ASSIGNED_CATEGORY: inactive

Q: What did the test return for `O=C(N[C@H]1CN2CCC1CC2)c1cc2ccoc2cn1` ?
A: inactive

Q: What did the test return for `N#CC(Cl)(Cl)Cl` ?
A: inactive

Q: What did the test return for `COc1cc(OC)nc(Oc2cccc(Oc3nc(OC)cc(OC)n3)c2C(=O)O)n1` ?
A: inactive

Q: What did the test return for `CCC1(c2ccccc2)C(=O)NC(=O)NC1=O` ?
A: inactive

Q: What did the test return for `CNC(=O)N(C)c1nc2ccccc2s1` ?
A: active

Q: What did the test return for `CC(=O)C(Cl)Cl` ?
A: inactive

Q: What did the test return for OC(c1ccc(F)cc1)(c1cncnc1)c1ccccc1Cl (centres undefined) ?
A: inactive

Q: What did the test return for `BrCCCCCCBr` ?
A: inactive

Q: What did the test return for CC(CC(C#N)(c1ccccc1)c1ccccc1)N(C)C (centres undefined) ?
A: active

Q: What did the test return for CC1CCCCC1NC(=O)Nc1ccccc1 (centres undefined) ?
A: active

Q: What did the test return for `[As]#[In]` ?
A: inactive

Q: What did the test return for `CSc1nc(N=[N+]=[N-])nc(NC(C)C)n1` ?
A: active

----------
Assay: qHTS assay for small molecule agonists of the antioxidant response element (ARE) signaling pathway - cell viability counter screen (AID 743203); further: nearly all actives have a fitted effect of over 55% in size
Conditions: ARE-bla HepG2 viability, CellTiter-Glo luminescence, 16 h; series mostly up to 73.3 µM
Inconclusive results are not listed. Active and inactive are the calls of the source. Calls come from the whole dose curve.
Output constraint: value belongs to T for active, F for inactive

Please review the entries below; each comes with its answer.
COMPOUND: CCC(=O)c1ccccc1
ASSIGNED_CATEGORY: F

COMPOUND: O=C(CCN1CC1)OCC(CO)(COC(=O)CCN1CC1)COC(=O)CCN1CC1
ASSIGNED_CATEGORY: F

COMPOUND: CS(=O)(=O)c1cc(C(F)(F)F)ccc1C(=O)c1cnoc1C1CC1
ASSIGNED_CATEGORY: F

Pending compound:
Q: What did the test return for `CCCCC(=O)Cl` ?
A: F

----------
Experiment: qHTS assay for small molecules that induce genotoxicity in human embryonic kidney cells expressing luciferase-tagged ATAD5 - cell viability (AID 651634); further: nearly all actives have a fitted effect of over 25% in size
Details: HEK293T ATAD5-luc cells viability, CellTiter-Fluor, 15.5 h; series mostly up to 83.3 µM
Records with an inconclusive call do not appear. Active and inactive are the calls of the source. The call rests on the fitted dose curve.
Output constraint: value belongs to active, inactive

MOLECULE: CC(=O)[C@H]1CC[C@H]2[C@@H]3CC[C@H]4C[C@H](O)CC[C@]4(C)[C@H]3C(=O)C[C@]12C
ASSIGNED_CATEGORY: inactive
--
MOLECULE: COc1cc2c(cc1OC)[C@@]13CCN4CC5=CCO[C@H]6CC(=O)N2[C@H]1[C@H]6[C@H]5C[C@H]43
ASSIGNED_CATEGORY: inactive
--
MOLECULE: CN1CCC(O)(c2ccc(F)cc2)C(C(=O)c2ccc(F)cc2)C1 (configuration not stated)
ASSIGNED_CATEGORY: inactive
--
MOLECULE: C=CC1CC=CCC1 (configuration not stated)
ASSIGNED_CATEGORY: inactive
--
MOLECULE: Cc1ccccc1CO[C@@H]1C[C@@]2(C(C)C)CC[C@]1(C)O2
ASSIGNED_CATEGORY: inactive

Q: What did the test return for `CCOC(=O)CP(=O)(OCC)OCC` ?
A: inactive

Q: What did the test return for `Nc1c(Br)cc([N+](=O)[O-])cc1[N+](=O)[O-]` ?
A: active

Q: What did the test return for `NC(=S)C(N)=S` ?
A: inactive

Q: What did the test return for `[Cl][Sn]([Cl])([Cl])[Cl]` ?
A: inactive

Q: What did the test return for `CCSC(=O)N(CC)C1CCCCC1` ?
A: inactive

Q: What did the test return for `Nc1cc(Cl)ccc1O` ?
A: active

Q: What did the test return for CC(Oc1ccc(Oc2ncc(C(F)(F)F)cc2Cl)cc1)C(=O)O (configuration not stated) ?
A: inactive

Q: What did the test return for `CCc1cc2c(s1)-n1c(C)nnc1CN=C2c1ccccc1Cl` ?
A: inactive

Q: What did the test return for `CN1CCN(C(=O)O[C@H]2c3nccnc3C(=O)N2c2ccc(Cl)cn2)CC1` ?
A: inactive

Q: What did the test return for `[O]=[Cd]` ?
A: inactive

Q: What did the test return for `O=[N+]([O-])c1cccc2c([N+](=O)[O-])cccc12` ?
A: inactive
